Cited source: patent US20190152992A1

Attribute: log10 Kb
targetDesc: human alpha2C receptors (Homo sapiens, UniProt P18825)
Sequence (P18825 whole entry): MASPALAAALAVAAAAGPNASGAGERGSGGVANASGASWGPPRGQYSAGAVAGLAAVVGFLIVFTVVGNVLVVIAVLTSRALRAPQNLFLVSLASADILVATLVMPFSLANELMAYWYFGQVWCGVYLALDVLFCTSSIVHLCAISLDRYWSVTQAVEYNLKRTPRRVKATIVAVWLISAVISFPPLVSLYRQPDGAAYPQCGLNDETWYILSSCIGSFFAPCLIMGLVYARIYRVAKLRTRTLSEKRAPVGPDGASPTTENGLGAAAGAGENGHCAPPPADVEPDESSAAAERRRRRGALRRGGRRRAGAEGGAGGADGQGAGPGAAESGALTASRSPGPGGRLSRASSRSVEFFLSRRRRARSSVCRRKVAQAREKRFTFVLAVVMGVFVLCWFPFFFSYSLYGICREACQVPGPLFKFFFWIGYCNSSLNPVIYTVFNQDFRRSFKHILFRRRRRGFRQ
testName: Determination of alpha2C antagonistic activity in vitro (FLIPR calcium assay)
conditionSummary: Alpha 2C Adrenaline Kb, Kb calculated from IC50 with the Cheng-Prusoff equation; adrenaline as agonist; CHO cells, human alpha2C
Structures can show the parent of a compound that is named as a salt.
// stored as log10 of Kb expressed in nM

For the record O=C1C(=O)N([C@H]2CCCN(C[C@H]3COc4ccccc4O3)C2)C(=O)N1Cc1ccncc1 [example 140] , what value of log10 Kb is listed for human alpha2C receptors (Homo sapiens, UniProt P18825)?
-0.66

Also check O=C1CN(C2CC2)C(=O)N1[C@H]1CCCN(C[C@H]2COc3ccccc3O2)C1 [example 119]
0.25

Same thing, different molecule: O=C1C(=O)N([C@H]2CCCN(C[C@H]3COc4ccccc4O3)C2)C(=O)N1C1CCNCC1 [example 137, dihydrochloride]
-0.26

Item: Cc1nc2cnccc2n1[C@H]1CCCN(C[C@H]2COc3ccccc3O2)C1 [example 158]
-0.46

Please give the result for CCCN1C(=O)C(=O)N([C@H]2CCCN(C[C@H]3COc4ccccc4O3)C2)C1=O [example 132] too.
-1.51

And then O=C1c2cccnc2CN1[C@H]1CCCN(C[C@H]2COc3ccccc3O2)C1 [example 10] , what is it?
-0.42
